Would you mind telling me the reported cytotoxicity of each entry?
System: Jurkat
Experiment: cytotoxicity relative to DMSO, 18 h (ratio); higher = less cell death (drugs called cytotoxic fall below 1)
Conditions: 1 nM
// keep it numeric: no unit symbol after the value

Exam item: Tell me cytotoxicity reported for `COc1c(OCCCN2CCOCC2)ccc2c3n(c(=NC(=O)c4cnc(N)nc4)nc12)CCN3`
Marked response: 0.843

Exam item: Tell me cytotoxicity reported for Nc1cccc2c1C(=O)N(C1CCC(=O)NC1=O)C2=O (stereo unspecified) [Pomalidomide]
Marked response: 1.04

Exam item: Tell me cytotoxicity reported for `O=C(NO)c1cnc(NC2(c3ccccc3)CC2)nc1`
Marked response: 0.969

Exam item: Tell me cytotoxicity reported for O=C(O)C(=O)O.[NH-]C1CCCCC1[NH-].[Pt+2] (stereo unspecified)
Marked response: 0.835

Exam item: Tell me cytotoxicity reported for `Cn1cc(-c2ccc(S(=O)(=O)n3ccc(C=CC(=O)Nc4ccccc4N)c3)cc2)cn1`
Marked response: 0.906

Exam item: Tell me cytotoxicity reported for O=P1(N(CCCl)CCCl)NCCCO1 (stereo unspecified) [Cyclophosphamide]
Marked response: 1.16

Exam item: Tell me cytotoxicity reported for `CC(C)(C)c1nc(-c2cccc(NS(=O)(=O)c3c(F)cccc3F)c2F)c(-c2ccnc(N)n2)s1`
Marked response: 0.941

Exam item: Tell me cytotoxicity reported for COC1CC2CCC(C)C(O)(O2)C(=O)C(=O)N2CCCCC2C(=O)OC(C(C)CC2CCC(O)C(OC)C2)CC(=O)C(C)C=C(C)C(O)C(OC)C(=O)C(C)CC(C)C=CC=CC=C1C (stereo unspecified)
Marked response: 0.973

Exam item: Tell me cytotoxicity reported for NC(=O)c1cccc2cn(-c3ccc(C4CCCNC4)cc3)nc12 (stereo unspecified)
Marked response: 1.11

Exam item: Tell me cytotoxicity reported for CCC1(O)CC2CN(CCc3c([nH]c4ccccc34)C(C(=O)OC)(c3cc4c(cc3OC)N(C=O)C3C(O)(C(=O)OC)C(OC(C)=O)C5(CC)C=CCN6CCC43C65)C2)C1 (stereo unspecified)
Marked response: 0.824

Exam item: Tell me cytotoxicity reported for `COc1ccc(F)c(F)c1C(=O)c1cnc(NC2CCN(S(C)(=O)=O)CC2)nc1N`
Marked response: 1.01

Exam item: Tell me cytotoxicity reported for Cc1cc(C(C)Nc2ccccc2C(=O)O)c2nc(N3CCOCC3)cc(=O)n2c1 (stereo unspecified)
Marked response: 1.19

Exam item: Tell me cytotoxicity reported for `Nc1ccccc1NC(=O)c1ccc(CNc2nccc(-c3cccnc3)n2)cc1`
Marked response: 0.997

Exam item: Tell me cytotoxicity reported for CCC(C)(Nc1ccnc(-c2c[nH]c3ncccc23)n1)C(=O)NCC(F)(F)F (stereo unspecified)
Marked response: 1.1

Exam item: Tell me cytotoxicity reported for `O=C(NCC1(c2nc(-c3ccccc3)cs2)CCOCC1)c1cccc(-c2noc(C(F)(F)F)n2)c1`
Marked response: 0.968

Exam item: Tell me cytotoxicity reported for O=C(O)c1ccc(CN2CCC(CNC3CC3c3ccccc3)CC2)cc1 (stereo unspecified)
Marked response: 1

---

Tested on: Primary T cells CD4+ naive
Test: metabolic activity relative to DMSO, 18 h (ratio); higher = more viable
Details: 1 nM
Would you mind telling me the reported metabolic activity of each entry?
// keep it numeric: no unit symbol after the value

Exam item: Given O=C(CCCCCCC(=O)Nc1ccccc1)NO [Vorinostat] , report its metabolic activity on Primary T cells CD4+ naive.
Marked response: 0.859

Exam item: Given Cc1[nH]c2ccccc2c1CCNCc1ccc(C=CC(=O)NO)cc1 [Panobinostat] , report its metabolic activity on Primary T cells CD4+ naive.
Marked response: 0.856

Exam item: Given Nc1cc(F)ccc1NC(=O)c1ccc(CNC(=O)C=Cc2cccnc2)cc1 [Tucidinostat] , report its metabolic activity on Primary T cells CD4+ naive.
Marked response: 0.862

Exam item: Given CCCCc1nc2cc(C=CC(=O)NO)ccc2n1CCN(CC)CC [Pracinostat] , report its metabolic activity on Primary T cells CD4+ naive.
Marked response: 0.982

---

Would you mind telling me the reported cytotoxicity of each entry?
Test system: Jurkat
Assay: cytotoxicity relative to DMSO, 18 h (ratio); higher = less cell death (drugs called cytotoxic fall below 1)
Conditions: 1 nM

Exam item: Tell me cytotoxicity reported for CNC1CC2OC(C)(C1OC)n1c3ccccc3c3c4c(c5c6ccccc6n2c5c31)C(=O)NC4 (stereo not drawn)
Marked response: 0.826

Exam item: Tell me cytotoxicity reported for `CC(=O)Nc1cccc(-n2c(=O)n(C3CC3)c(=O)c3c(Nc4ccc(I)cc4F)n(C)c(=O)c(C)c32)c1`
Marked response: 1.14

Exam item: Tell me cytotoxicity reported for `Cn1cc(CNCC2CCN(c3ncc(C(=O)NO)cn3)CC2)c2ccccc21`
Marked response: 0.816

Exam item: Tell me cytotoxicity reported for CC(C)Nc1cc(-c2c[nH]c(C(=O)NC(CO)c3cccc(Cl)c3)c2)c(Cl)cn1 (stereo not drawn)
Marked response: 0.973

Exam item: Tell me cytotoxicity reported for CC(C)CC(NC(=O)C(Cc1ccccc1)NC(=O)c1cnccn1)B(O)O (stereo not drawn)
Marked response: 1.02

Exam item: Tell me cytotoxicity reported for NC1CC1c1ccccc1 (stereo not drawn)
Marked response: 0.98

Exam item: Tell me cytotoxicity reported for CN1CCC(c2c(O)cc(O)c3c(=O)cc(-c4ccccc4Cl)oc23)C1CO (stereo not drawn)
Marked response: 0.627

Exam item: Tell me cytotoxicity reported for `COc1cc(N2CCC(N3CCN(C)CC3)CC2)ccc1Nc1ncc(Cl)c(Nc2ccccc2P(C)(C)=O)n1`
Marked response: 0.701

---

Test system: Jurkat
Assay: cytotoxicity relative to DMSO, 18 h (ratio); higher = less cell death (drugs called cytotoxic fall below 1)
Settings: 1 nM
Observed Property: cytotoxicity
// keep it numeric: no unit symbol after the value

Exam item: Tell me cytotoxicity reported for Nc1ncn(C2OC(CO)C(O)C2O)c(=O)n1 (stereo not drawn)
Marked response: 0.896

Exam item: Tell me cytotoxicity reported for CC(C)CC(NC(=O)CNC(=O)c1cc(Cl)ccc1Cl)B(O)O (stereo not drawn)
Marked response: 0.958

Exam item: Tell me cytotoxicity reported for O=C1CCC(N2Cc3c(OCc4ccc(CN5CCOCC5)cc4)cccc3C2=O)C(=O)N1 (stereo not drawn) [Iberdomide]
Marked response: 0.885

Exam item: Tell me cytotoxicity reported for `O=C1C=CC(=O)C2=C1C1c3ccccc3C2c2ccccc21`
Marked response: 0.945

Exam item: Tell me cytotoxicity reported for CC(=O)N1CCC(Nc2cc(C(=O)NCC(O)CN3CCc4ccccc4C3)ncn2)CC1 (stereo not drawn)
Marked response: 1.07

Exam item: Tell me cytotoxicity reported for CN1CCC(c2c(O)cc(O)c3c(=O)cc(-c4ccccc4Cl)oc23)C(O)C1 (stereo not drawn)
Marked response: 1.03

Exam item: Tell me cytotoxicity reported for CCc1cnn2c(NCc3ccc[n+]([O-])c3)cc(N3CCCCC3CCO)nc12 (stereo not drawn)
Marked response: 0.926

Exam item: Tell me cytotoxicity reported for `O=C(O)c1ccc(Nc2ncc3c(n2)-c2ccc(Cl)cc2C(c2c(F)cccc2F)=NC3)cc1`
Marked response: 0.913

---

Test system: Jurkat
Experiment: cytotoxicity relative to DMSO, 18 h (ratio); higher = less cell death (drugs called cytotoxic fall below 1)
Settings: 1 nM
Observed Property: cytotoxicity
// keep it numeric: no unit symbol after the value

Exam item: Tell me cytotoxicity reported for Nc1ncn(C2CC(O)C(CO)O2)c(=O)n1 (stereo unspecified) [Decitabine]
Marked response: 0.966

Exam item: Tell me cytotoxicity reported for COc1ccc(-c2ccc3c(N4CCOCC4C)nc(N4CCOCC4C)nc3n2)cc1CO (stereo unspecified) [AZD-8055]
Marked response: 0.884

Exam item: Tell me cytotoxicity reported for CNCc1ccc(-c2[nH]c3cc(F)cc4c3c2CCNC4=O)cc1 [Rucaparib]
Marked response: 1.06

Exam item: Tell me cytotoxicity reported for COc1ccc(-c2ccc3ncc4c(c3c2)n(-c2ccc(N3CCNCC3)c(C(F)(F)F)c2)c(=O)n4C)cn1 [BGT-226]
Marked response: 1.02

Exam item: Tell me cytotoxicity reported for CC=C1NC(=O)C2CSSCCC=CC(CC(=O)NC(C(C)C)C(=O)N2)OC(=O)C(C(C)C)NC1=O (stereo unspecified) [Romidepsin]
Marked response: 0.904

Exam item: Tell me cytotoxicity reported for Cn1cnc2c(F)c(Nc3ccc(Br)cc3F)c(C(=O)NOCCO)cc21 [Binimetinib]
Marked response: 1.13

Exam item: Tell me cytotoxicity reported for Nc1nc2[nH]cc(CCc3ccc(C(=O)NC(CCC(=O)O)C(=O)O)cc3)c2c(=O)[nH]1 (stereo unspecified) [Pemetrexed]
Marked response: 0.992

Exam item: Tell me cytotoxicity reported for COc1cccc2c1C(=O)c1c(O)c3c(c(O)c1C2=O)CC(O)(C(=O)CO)CC3OC1CC(N)C(O)C(C)O1 (stereo unspecified) [Doxorubicin]
Marked response: 1.05

Exam item: Tell me cytotoxicity reported for COc1ncc(-c2ccc3nccc(-c4ccnnc4)c3c2)cc1NS(=O)(=O)c1ccc(F)cc1F [Omipalisib]
Marked response: 1.04

Exam item: Tell me cytotoxicity reported for Cc1ncsc1-c1ccc(CNC(=O)C2CC(O)CN2C(=O)C(N)C(C)(C)C)cc1 (stereo unspecified) [VHL ligand 1]
Marked response: 1.01

Exam item: Tell me cytotoxicity reported for CC(=O)c1c(C)c2cnc(Nc3ccc(N4CCNCC4)cn3)nc2n(C2CCCC2)c1=O [Palbociclib]
Marked response: 0.851

Exam item: Tell me cytotoxicity reported for Cn1ncnc1C1c2n[nH]c(=O)c3cc(F)cc(c23)NC1c1ccc(F)cc1 (stereo unspecified) [Talazoparib]
Marked response: 0.986

Exam item: Tell me cytotoxicity reported for O=c1[nH]cc(F)c(=O)[nH]1 [5-Fluorouracil]
Marked response: 0.997

Exam item: Tell me cytotoxicity reported for CCCCN(Cc1ccc(C(=O)NO)cc1)C(=O)Nc1ccccc1 [Nexturastat A]
Marked response: 1.05

Exam item: Tell me cytotoxicity reported for `COc1ccc(Cn2ccc3ccc(C(=O)NO)cc32)cc1`
Marked response: 0.955

Exam item: Tell me cytotoxicity reported for O=C(c1cc(Cc2n[nH]c(=O)c3ccccc23)ccc1F)N1CCN(C(=O)C2CC2)CC1 [Olaparib]
Marked response: 0.942

The values you see were collected from the supplement of paper PMC11919725.
